molecular target: T1, recombinant human IL-13 (rh-IL-13)-Fc (human, UniProt P35225 35-146, limits assumed); test: yeast surface display scFv, flow cytometry, 10 nM rh-IL-13-Fc
T1 construct: bought; not shown: human Fc
T1 sequence (P35225 35-146 limits assumed): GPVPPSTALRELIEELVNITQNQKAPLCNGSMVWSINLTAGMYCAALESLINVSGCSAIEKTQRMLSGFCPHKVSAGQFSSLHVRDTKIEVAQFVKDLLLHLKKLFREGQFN
measuredQuantity: relative affinity (normalized MFI, % of positive control)

// sample Clone C2 (yeast-displayed scFv) (scFv) scFv: QMQLVESGGGVVQPGRSLRLSCAASGFTFRTYGMHWVRQAPGKGLEWVAVIWYDGSNKHYADSVKGRFTITRDNSKNTLNLQMNSLRAEDTAVYYCARAPQWELTAEAFDIWGQGTMVTVSSGGGGSGGGGSGGGGSSYVLTQPPSVSVAPGQTARITCGGNLIGSKLVHWYQQKPGQAPVLVVYDDSDRPSLIPERFSGSNSGNTATLTISRVEAGDEADYYCQVWDSSSDGVVFGGGTKLTVL , its relative affinity (normalized MFI, % of positive control) was > 20%

src = patent US20240059769A1
